Values compiled from patent US20170216297A1.

Target: HSP27 (Homo sapiens)
Test: Capillary electrophoresis of the CS protein precipitates (precipitated citrate synthase as measure of HSP27 inhibition)
Assay type: biochemical
Settings: 10 μmol/L; 43° C. for 70 minutes; 750 μmol/L BVDU set at 1
Experimental: Since the heat-denatured protein aggregates of the citrate synthase from Example 1 are not water-soluble, these can be separated completely from the supernatant by means of centrifugation at room temperature at 16,000×g, 10 min. By using capillary electrophoresis, the compositions of the separated precipitates can be shown and quantified. The relative quantity of protein of precipitated citrate synthase serves as a measure of the efficacy of the test substances. […]
READOUT KIND: Rel. quantity of protein prec. CS

Cc1cn(C/C=C\CNC(=O)C(c2ccccc2)c2ccccc2)c(=O)[nH]c1=O :: 0.82
Cc1cn([C@H]2C[C@H](n3cc(CC4CCCC4)nn3)[C@@H](CO)O2)c(=O)[nH]c1=O :: 0.66
Cc1cn([C@H]2C[C@H](n3cc(-c4ccc(Cl)cc4)nn3)[C@@H](CO)O2)c(=O)[nH]c1=O :: 0.67
Cc1cn(C2C[C@H](n3cc(-c4ccc(Br)cc4)nn3)[C@@H](CO)O2)c(=O)[nH]c1=O (stereo partly drawn) :: 0.64
Cc1cn(CCCCNC(=O)Cc2ccc(-c3ccccc3)cc2)c(=O)[nH]c1=O :: 0.67
Cc1cn(C/C=C\CNC(=O)Cc2cccc3ccccc23)c(=O)[nH]c1=O :: 0.81
Cc1cn([C@H]2C[C@H](n3cc(-c4ccccc4)nn3)[C@@H](CO)O2)c(=O)[nH]c1=O :: 0.79
Cc1cn(CCCCNC(=O)C2c3ccccc3-c3ccccc32)c(=O)[nH]c1=O :: 0.58
Cc1cn([C@H]2C[C@H](n3cc(-c4ccc(Cl)c(Cl)c4)nn3)[C@@H](CO)O2)c(=O)[nH]c1=O :: 0.86
CCCc1cn([C@H]2C[C@H](n3cc(C)c(=O)[nH]c3=O)O[C@@H]2CO)nn1 :: 0.79
Cc1cn([C@H]2C[C@H](n3cc(-c4ccc(F)cc4)nn3)[C@@H](CO)O2)c(=O)[nH]c1=O :: 0.66
COc1ccc(-c2cn([C@H]3CC(n4cc(C)c(=O)[nH]c4=O)O[C@@H]3CO)nn2)cc1 (stereo partly drawn) :: 0.75

---

Target: HSP27 (Homo sapiens)
Assay: Capillary electrophoresis of the CS protein precipitates (precipitated citrate synthase as measure of HSP27 inhibition)
Type: biochemical
Conditions: 10 μmol/L; 120 minutes
READOUT KIND: times higher activity than BVDU for the inhibition of the HSP27 protein (times)

Cc1cn(CC=CCNC(=O)C2c3ccccc3Oc3ccccc32)c(=O)[nH]c1=O :: 49
Cc1cn(CC=CCNC(=O)Cc2ccc(-c3ccccc3)cc2)c(=O)[nH]c1=O :: 61
CCCCc1ccc(Nc2nc3c(ncn3COCCO)c(=O)[nH]2)cc1 :: 69
O=c1[nH]c(Nc2cccc(C(Cl)=C(Cl)Cl)c2)nc2[nH]cnc12 :: 53

---

Target: HSP27 (Homo sapiens, UniProt P04792)
Sequence (P04792 whole entry): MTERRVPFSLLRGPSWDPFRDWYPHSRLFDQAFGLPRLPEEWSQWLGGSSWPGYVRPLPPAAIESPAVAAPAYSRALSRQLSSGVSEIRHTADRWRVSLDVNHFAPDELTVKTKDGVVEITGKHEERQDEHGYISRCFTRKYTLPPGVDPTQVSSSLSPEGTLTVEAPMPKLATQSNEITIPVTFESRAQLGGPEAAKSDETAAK
Experiment: Capillary electrophoresis of the CS protein precipitates (precipitated citrate synthase as measure of HSP27 inhibition)
Format: biochemical
Conditions: 10 μmol/L; 43° C. for 70 minutes; 750 μmol/L BVDU set at 1
READOUT KIND: Rel. quantity of protein prec. CS

Cc1cn(C/C=C\CNC(=O)c2cccc3ccccc23)c(=O)[nH]c1=O :: 0.78
Cc1cn(C/C=C\CNC(=O)C2c3ccccc3-c3ccccc32)c(=O)[nH]c1=O :: 0.86
Cc1cn(C2C[C@H](n3cc(-c4cccc(Br)c4)nn3)[C@@H](CO)O2)c(=O)[nH]c1=O (some centres unmarked) :: 0.81
Cc1cn(CCCCNC(=O)C2c3ccccc3Oc3ccccc32)c(=O)[nH]c1=O :: 0.68
O=C(NC/C=C\Cn1ccc(=O)[nH]c1=O)C1c2ccccc2OC2C=CC=CC21 (centres unmarked) :: 0.85
